assay: HT29 colon tumor cell growth inhibition, primary screen, imaging, high content imaging, 72 h, CellTiter-Glo (AID 772); conditions: HCS imaging cell count, measured here: percent cells with condensed nuclei, at 10 µM, stronger effect = higher value;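 note: condensed means nuclear area below control median minus 1.5 SD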
The whole screen tested about 3,300 compounds, of which about 20 (0.6%) were called active. For the sample, actives were picked, then their nearest neighbours and some compounds at random.
Reported Property: condensed nuclei (%)
Return type: number; implicit unit %.

Consider the following illustrative entries.
Compound	Scale Unit	condensed nuclei
Cc1nc(NCCCO)c(C#N)c2c1COC(C)(C)C2	%	5.86
Cc1[nH]c2ccc(F)cc2c(=O)c1SC(F)(F)C(F)C(F)(F)F (stereo unspecified)	%	1.61
Cc1nn(C)cc1C1C2=C(CC(C)(C)CC2=O)OC2=C1C(=O)CC(C)(C)C2	%	2.88
CCN(CC)S(=O)(=O)c1cccc2c(N(C)C)cccc12	%	4.17
c1ccc(CN2CCN(c3ncnc4c3[nH]c3ccccc34)CC2)cc1	%	27.8
COc1ccc2[nH]c3c(N4CCN(Cc5ccc6c(c5)OCO6)CC4)ncnc3c2c1	%	1.08
S=C(N=Nc1ccccc1)NNc1ccccc1	%	9.9
COC(=O)/C=c1/s/c(=C(/C#N)C(=O)N2CCOCC2)n(-c2ccccc2)c1=O	%	5.81
Fc1ccc2[nH]c3c(N4CCN(Cc5ccc6c(c5)OCO6)CC4)ncnc3c2c1	%	24.5
C=CCOC(=O)C1=C(C)OC(N)=C(C#N)C1c1ccoc1 (stereo unspecified)	%	6.32

Summary for this compound, CC1(c2ccco2)NC(=O)NC1=O (stereo unspecified) : condensed nuclei is 12.6

GET /value?item= CC(C)Sc1nnc2n(CCc3ccccc3)c(=O)c3c4c(sc3n12)COC(C)(C)C4 &field=condensed nuclei returns 1.47

In plain terms, CCCCCC1CC(CC#CCN2CCOCC2)C(=O)O1 (stereo unspecified) has a documented condensed nuclei of 3.8

Kindly note the recorded condensed nuclei for CCOC(=O)c1c(C)n(C)c2ccc(OC)c(NC(=O)CCN3CCSCC3)c12 , which is 1.98

Input COCCCn1c2nc3ccccc3nc2c2c(=O)n(-c3ccccc3OC)c(C)nc21 . Output condensed nuclei: 1.23

// condensed nuclei value for Cc1cccc(OCC(=O)N2CCC(N3CCCCCC3)CC2)c1 : 13.8

Entry C=CCn1cnc2c(c1=O)c1nc3ccccc3nc1n2-c1ccc(C)cc1 ; condensed nuclei = 2.48

The recorded condensed nuclei for Cc1ccc2[nH]c3c(N4CCN(Cc5ccc6c(c5)OCO6)CC4)ncnc3c2c1 is 29.9

What the record says about CCCSc1nc(C)c(CC(=O)O)c(=O)[nH]1 : condensed nuclei is 3.23

Kindly note the recorded condensed nuclei for CCOC(=O)/C(C#N)=C1\Nc2ccccc2N=C1N(CC(C)C)CC(C)C , which is 3.37

====

experiment: HT29 colon tumor cell growth inhibition, primary screen, imaging, high content imaging, 72 h, CellTiter-Glo (AID 772); conditions: HCS imaging cell count, measured here: percent cells with condensed nuclei, at 10 µM, stronger effect = higher value;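 note: condensed means nuclear area below control median minus 1.5 SD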
About 20 (0.6%) of roughly 3,300 compounds were called active. The sample holds actives, similar compounds and a random draw of the others, so the mix is not that of the screen.
Reported Property: condensed nuclei (%)
Please give a number only; it is taken to be in %.

Worked set:
Compound	Scale Unit	condensed nuclei
Cc1ccc2cc(CN(C(=O)c3ccco3)c3ccccc3C)c(=O)[nH]c2c1	%	2.77
CCOC(=O)C(Oc1ccc(=O)[nH]n1)C(C)=O (configuration not stated)	%	3.6
c1ccc(Cc2nn[nH]n2)cc1	%	4.71
O=C(OCC#CCSc1nnc(-c2ccccc2)o1)c1cccs1	%	10.3
Cc1cc(C)n(Cc2ccc(C(=O)NCCC3=CCCCC3)o2)n1	%	3.56
N#CC1=C(N)OC2=C(C(=O)CCC2)C1CCc1ccccc1 (configuration not stated)	%	5.15
C=CCOC(=O)C(C#N)c1nc2ccccc2nc1N1CCN(c2ccccc2OCC)CC1 (configuration not stated)	%	3.97
CCCOc1ccc(Cl)cc1CN1CCOCC1	%	3.51
N#Cc1c(N)nc(SCc2ccccn2)c(C#N)c1-c1cccs1	%	5.56
COc1ccc2[nH]c(C)c(C(=O)CN3CCc4cc(OC)c(OC)cc4C3)c2c1	%	2.58

Measured condensed nuclei of CCCCSc1nc(N)c(C#N)c(-c2cccs2)c1C#N : 41.7

compound Cc1cc(C)cc(CC2CC(=O)N(c3cc(C)on3)C2=O)c1 (configuration not stated) , condensed nuclei observed: 7.19
